Reference source for all entries: paper PMC7321408

# Tested on: Hep-2C cells
# test.description: MTT assay against Hep-2C cells
# Assay type: cell-based, Human
# assay.conditions: 24 h; read-out: IC50 (Mean ± SEM) Hep-2C Cells
property.label: IC50 (µM)
A number alone suffices; assume µM.

Query string: Consider the compound shown here: N.N.[Cl][Pt][Cl] [Cisplatin, reference compound] What is its recorded IC50?
Result string: 19.1

---

# System: carrageenan-induced paw edema
# test.description: Carrageenan-induced paw edema (in vivo anti-inflammatory activity)
# Set-up: species or system BALB/C albino mice; unit not given beside the values
# assay.conditions: 0 h after carrageenan injection; 10 mg/kg; mice, n = 5
# Paw thickness per entry
# print the numeric value only

Known Paw thickness results, listed for orientation:
compound	property.label	numeric.readout
c1ccc2c(c1)CCCN2CN1CCCC1	Paw thickness	2.05
c1ccc2c(c1)CCCN2CN1CCCCC1	Paw thickness	2.06
c1ccc2c(c1)CCCN2CN1CCOCC1	Paw thickness	2.05

Query string: Record request: Paw thickness value, item `CC(=O)N(CN1CCCc2ccccc21)c1ccc(O)cc1`
Result string: 2.04

Query string: Another: CC(=O)Oc1ccccc1C(=O)O [Acetyl salicylic acid, reference compound]
Result string: 2.14

---

Property: activity at 50 µM; scope: individual compounds
# System: NO generated by LPS-induced macrophages
# test.description: Nitric oxide assay (Griess) in LPS-induced macrophages
# Format: cell-based, murine
# assay.conditions: Mus musculus, Macrophage, 18 h, 50 µM, LPS 1 µg/mL; read-out: % NO Production (Mean ± SEM)
# Description: A Griess reagent, a spectrophotometric determination of nitrite level, was carried out to measure the nitrite level in the conditioned medium of macrophages treated with lipopolysaccharide (LPS). Sodium nitrite (NaNO2) was used as a standard compound for the standard curve (Figure 8). The NO concentrations were obtained using the standard curve equation: y = 0.0083x + 0.0017, R^2 = 0.9999, where y is the absorbance at 540 nm and x is the NO concentration in µM. […]
Dear colleague, please return just the value in %, with no unit written.

# count of solved cases: 3
compound	activity at 50 µM [%]
CC(=O)N(CN1CCCc2ccccc21)c1ccccc1	42.5
Clc1cccc(NCN2CCCc3ccccc32)c1	24.1
c1ccc2c(c1)CCCN2CN1CCOCC1	22.1

Query string: Would you kindly share the measured activity at 50 µM for `CN1CCN(CN2CCCc3ccccc32)CC1` ?
Result string: 28.6

Query string: Now consider CN1C(C(=O)Nc2ccccn2)=C(O)c2ccccc2S1(=O)=O [Piroxicam, reference compound] .
Result string: 16.5

Query string: Quick one: `c1ccc(N(CN2CCCc3ccccc32)c2ccccc2)cc1`
Result string: 21.4

---

Recorded IC50 (DPPH radical scavenging) by entry
# test.description: DPPH free radical scavenging assay
# assay.conditions: concentration to scavenge 50% of the DPPH radicals; mean ± SEM, n = 3
// note: answer is a bare numeric in µg/mL

Below, 10 compounds whose answers are already recorded.
compound	unit.spec	IC50 (DPPH radical scavenging)
CN1CCN(CN2CCCc3ccccc32)CC1	µg/mL	56.63
CCCN(CCC)CN1CCCc2ccccc21	µg/mL	29.79
c1ccc2c(c1)CCCN2CN1CCNCC1	µg/mL	35.89
O=c1c(O)c(-c2ccc(O)c(O)c2)oc2cc(O)cc(O)c12 [Quercetin, reference compound]	µg/mL	41.64
Brc1ccc(NCN2CCCc3ccccc32)cc1	µg/mL	50.76
CC(=O)N(CN1CCCc2ccccc21)c1ccccc1	µg/mL	47.81
O=C1O[C@H]([C@@H](O)CO)C(O)=C1O [Ascorbic Acid, reference compound]	µg/mL	41.38
CCN(CC)CN1CCCc2ccccc21	µg/mL	53.63
Clc1cccc(NCN2CCCc3ccccc32)c1	µg/mL	29.19
c1ccc2c(c1)CCCN2CN1CCCC1	µg/mL	52.75

Query string: Look up IC50 (DPPH radical scavenging): `COc1ccc(NCN2CCCc3ccccc32)cc1`
Result string: 39.33

Query string: // next record `c1ccc(N(CN2CCCc3ccccc32)c2ccccc2)cc1`
Result string: 44.4

Query string: And what about the compound `c1ccc2c(c1)CCCN2CN1CCOCC1` ?
Result string: 42.55

Query string: Same thing, different compound: `c1ccc2c(c1)CCCN2CN1CCCCC1`
Result string: 44.22
